- targetOrSystem: T1, MMAC1.388-403: biotin-ENEPFDEDQHTQITKV-COOH (SMILES …)
- T1 construct: also called MMAC1 C-terminal PDZ peptide
- T1 peptide: Biotin-ENEPFDEDQHTQITKV-OH
- testSummary: ELISA, GST-PDZ domain on plate, biotin-peptide/streptavidin-alkaline phosphatase complex in solution
*: point of attachment. Biotin = O=C1N[C@H]2[C@H](CS[C@H]2CCCCC(=O)*)N1
A405 values by entry
Kindly answer with a numeric value in A405, unit omitted.

Would you please look over these solved cases?
binder="GST fusion of MMSC2 PDZ domain 1 (P15) (other, GST placed N-terminal as in pGEX vectors; Adsorbed to ELISA wells; also called PDZ domain number 1; not shown: glutathione S-transferase (GST) encoded by pGEX vectors (Pharmacia)) EVFELLKPPSGGLGFSVVGLRSENRGELGIFVQEIQEGSVAHRDGRLKETDQILAINGQALDQTITHQQAISILQKAKDTVQLVIAR" result=0.011
binder="GST fusion of MMSC2 PDZ domain 13 (P4) (other, GST placed N-terminal as in pGEX vectors; also called PDZ domain number 13; not shown: glutathione S-transferase (GST) encoded by pGEX vectors (Pharmacia)) KSITLERGPDGLGFSIVGGYGSPHGDLPIYVKTVFAKGAASEDGRLKRGDQIIAVNGQSLEGVTHEEAVAILKRTKGTVTLMVLS" result=0.456
binder="GST fusion of MMSC2 PDZ domain 2 (P14) (other, GST placed N-terminal as in pGEX vectors; also called PDZ domain number 2; not shown: glutathione S-transferase (GST) encoded by pGEX vectors (Pharmacia)) ETIELVNDGSGLGFGIIGGKATGVIVKTILPGGVADQHGRLCSGDHILKIGDTDLAGMSSEQVAQVLRQCGNRVKLMIAR" result=0.001

# input for lookup
Entry GST fusion of MMSC2 PDZ domain 5 (P12) (other, GST placed N-terminal as in pGEX vectors; also called PDZ domain number 5; not shown: glutathione S-transferase (GST) encoded by pGEX vectors (Pharmacia)) QHIELEKGSKGLGFSILDYQDPIDPASTVIIIRSLVPGGIAEKDGRLLPGDRLMFVNDVNLENSSLEEAVEALKGAPSGTVRIGVAK , A405 reported as 0
